A collection of compounds and their measured pIC50
Test system: HeLa
experiment_description: Antiproliferative activity against HeLa cells by SRB assay
Format: functional, cell-based
assay_setup: Homo sapiens
Keep it numeric: pIC50 is minus log10 of the concentration in mol/L.

Example entries and their recorded answers appear below.
| query_smiles | pIC50 |
| --- | --- |
| CCC/C(=N\Nc1nc2ccccc2o1)c1ccccn1 | 6.82 |
| C/C(=N\Nc1nc2ccccc2o1)c1ccncn1 | 6.30 |
| C/C(=N\Nc1nc2ccccc2o1)c1ncccn1 | 6.74 |
| C/C(=N\Nc1nc2ccccc2o1)c1cc(C)ncn1 | 6.68 |
| C/C(=N\Nc1nc2ccccc2o1)c1nccnc1C | 5.73 |
| c1ccc(C/C(=N\Nc2nc3ccccc3o2)c2ccccn2)cc1 | 7.38 |
| CC/C(=N\Nc1nc2ccccc2o1)c1ccccn1 | 7.28 |
| C/C(=N\Nc1nc2ccccc2o1)c1ccccn1 | 6.11 |

Let us examine a further case.
Req: Entry under review: C/C(=N\Nc1nc2ccccc2o1)c1cccnn1 . Reported pIC50?
Resp: 5.93

====

System: CCRF-CEM
experiment_description: Antiproliferative activity against CCRF-CEM cells by MTT assay
Assay type: functional, cell-based
assay_setup: Homo sapiens
property_label: pIC50
Keep it numeric: pIC50 is minus log10 of the concentration in mol/L.

Example entries and their recorded answers appear below.
| query_smiles | assay_system | val |
| --- | --- | --- |
| CCC/C(=N\Nc1nc2ccccc2o1)c1ccccn1 | CCRF-CEM | 8.22 |
| C/C(=N\Nc1nc2ccccc2o1)c1nccc2ccccc12 | CCRF-CEM | 6.46 |
| C/C(=N\Nc1nc2ccccc2o1)c1cc(C)ncn1 | CCRF-CEM | 6.64 |
| c1ccc(C(=NNc2nc3ccccc3o2)c2ccccn2)nc1 | CCRF-CEM | 7.36 |
| C/C(=N\Nc1nc2ccccc2o1)c1cnc(C)cn1 | CCRF-CEM | 6.21 |
| c1ccc(/C(=N\Nc2nc3ccccc3o2)c2ccccn2)cc1 | CCRF-CEM | 7.11 |

Req: Entry under review: CC/C(=N\Nc1nc2ccccc2o1)c1ccccn1 . Reported pIC50?
Resp: 8.40

Req: Entry under review: C/C(=N\Nc1nc2ccccc2o1)c1ccccn1 . Reported pIC50?
Resp: 7.62

Req: Entry under review: C/C(=N\Nc1nc2ccccc2o1)c1ncccn1 . Reported pIC50?
Resp: 6.89

Req: Entry under review: C/C(=N\Nc1nc2ccccc2o1)c1ccc(C)nn1 . Reported pIC50?
Resp: 5.59

====

A collection of compounds and their measured IC50
Tested on: CCRF-CEM
experiment_description: Antiproliferative activity against CCRF-CEM cells by MTT assay
Assay type: functional, cell-based
assay_setup: Homo sapiens
Lab book: enter the figure in µM, no units written.

| query_smiles | assay_system | reading_unit | IC50 |
| --- | --- | --- | --- |
| C/C(=N\Nc1nc2ccccc2o1)c1cccnn1 | CCRF-CEM | µM | 0.72 |
| C/C(=N\Nc1nc2ccccc2o1)c1ccncn1 | CCRF-CEM | µM | 0.36 |
| CC(C)/C(=N\Nc1nc2ccccc2o1)c1ccccn1 | CCRF-CEM | µM | 0.021 |

Req: Entry under review: C/C(=N\Nc1nc2ccccc2o1)c1ccc2ccccc2n1 . Reported IC50?
Resp: 7.04

Req: Entry under review: C/C(=N\Nc1nc2ccccc2o1)c1nccnc1C . Reported IC50?
Resp: 1.3

Req: Entry under review: C/C(=N\Nc1nc2ccccc2o1)c1cc2ccccc2cn1 . Reported IC50?
Resp: 0.14

====

A collection of molecules and their measured IC50
Test system: CCRF-CEM
experiment_description: Antiproliferative activity against CCRF-CEM cells by MTT assay
Format: functional, cell-based
assay_setup: Homo sapiens

| query_smiles | val |
| --- | --- |
| C/C(=N\N(C)c1nc2ccccc2o1)c1ccccn1 | > 50 µM |
| c1ccc(C/C(=N\Nc2nc3ccccc3o2)c2ccccn2)cc1 | > 10 µM |

Req: Entry under review: C/C(=N\Nc1nc2ccccc2o1)c1cccnc1 . Reported IC50?
Resp: > 100 µM

Req: Entry under review: CC(C)(C)/C(=N\Nc1nc2ccccc2o1)c1ccccn1 . Reported IC50?
Resp: > 10 µM
